Recorded IC50 by entry
measurementTarget: RIOX2 (Homo sapiens, UniProt Q8IUF8)
Sequence (Q8IUF8 26-465): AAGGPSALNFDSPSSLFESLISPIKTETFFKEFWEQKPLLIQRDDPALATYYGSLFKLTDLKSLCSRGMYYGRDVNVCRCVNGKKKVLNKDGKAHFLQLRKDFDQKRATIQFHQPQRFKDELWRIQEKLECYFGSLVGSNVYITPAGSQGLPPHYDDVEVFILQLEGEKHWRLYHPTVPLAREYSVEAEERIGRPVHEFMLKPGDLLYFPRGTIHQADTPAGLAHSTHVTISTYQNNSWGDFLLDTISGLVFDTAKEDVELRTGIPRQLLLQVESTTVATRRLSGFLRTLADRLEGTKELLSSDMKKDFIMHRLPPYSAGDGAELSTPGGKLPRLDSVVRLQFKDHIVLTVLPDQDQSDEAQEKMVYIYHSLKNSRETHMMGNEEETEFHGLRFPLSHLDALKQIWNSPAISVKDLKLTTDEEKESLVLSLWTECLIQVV

- compound: "O=C(O)c1cc(C(=O)O)c(NCC2CCCCC2)cn1 [Compound 20f]"
  IC50: "34 µM"
- compound: "O=C(O)c1cc(C(=O)O)c(NCCCc2ccccc2)cn1 [Compound 20c]"
  IC50: "27.3 µM"
- compound: "COc1ccccc1CNc1cnc(C(=O)O)cc1C(=O)O [Compound 20i]"
  IC50: "> 50 µM"
- compound: "O=C(O)c1cc(C(=O)O)c(NCc2ccccc2C2CC2)cn1 [Compound 20j]"
  IC50: "> 50 µM"
- compound: "COc1ccc(CNc2cnc(C(=O)O)cc2C(=O)O)cc1 [Compound 20h]"
  IC50: "27.6 µM"
- compound: "O=C(O)c1cc(C(=O)O)c(NCCc2ccccc2)cn1 [Compound 20b]"
  IC50: "27.9 µM"

All figures here come from paper PMC10424186.
